Biological target: ALDH3A1 (Homo sapiens)
Sequence (P30838 whole entry): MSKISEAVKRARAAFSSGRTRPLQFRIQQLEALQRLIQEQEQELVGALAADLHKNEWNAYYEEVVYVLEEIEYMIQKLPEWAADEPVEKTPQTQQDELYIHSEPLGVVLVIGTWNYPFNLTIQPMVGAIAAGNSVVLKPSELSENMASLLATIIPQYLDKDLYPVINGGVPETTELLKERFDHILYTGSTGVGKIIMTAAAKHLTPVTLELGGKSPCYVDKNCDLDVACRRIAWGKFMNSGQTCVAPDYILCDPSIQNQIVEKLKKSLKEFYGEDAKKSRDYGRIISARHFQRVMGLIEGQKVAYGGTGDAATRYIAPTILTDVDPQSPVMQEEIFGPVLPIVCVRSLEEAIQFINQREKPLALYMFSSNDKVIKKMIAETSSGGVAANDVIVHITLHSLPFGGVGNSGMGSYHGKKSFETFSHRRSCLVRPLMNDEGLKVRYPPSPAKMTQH
result.type: pKi
FYI, pKi means -log10 of a concentration in mol per litre.

Lab note: molecule CC(=O)Nc1ccc(Nc2ccc(S(C)(=O)=O)cc2[N+](=O)[O-])cc1 tested on ALDH3A1 (Homo sapiens); recorded pKi was 5.40
